Target: HLA-B*5401 (Human)
Assay: competition with 125I-labelled probe peptide for purified HLA, gel filtration
Listed below: binding affinity ratio (IC50 of standard peptide / IC50 of test peptide) values for each entry.

Worked examples follow.
>>> experimental_value("PPHGGLLGW (modifications not checked) [HBV ENV 58 peptide …]")
0.0002
>>> experimental_value("PPAYRPPNA (modifications not checked)")
0.0003
>>> experimental_value("LPLDKGIKPYY (modifications not checked) [HBV POL 123 peptide …]")
0.0001
>>> experimental_value("NPLGFFPDHQL (modifications not checked) [HBV ENV 9 peptide …]")
0.0001
>>> experimental_value("SPEHCSPHHTA (modifications not checked) [HBV NUC 44 peptide …]")
0.0011

// below: binding affinity ratio (IC50 of standard peptide / IC50 of test peptide) requested for another binder
Quick note, binding affinity ratio (IC50 of standard peptide / IC50 of test peptide) for PPAYRPPNAPI (modifications not checked) landed at 0.0001

Hey, just so you know, these numbers are from patent US20090311283A1.
